- System: Streptococcus pneumoniae (ATCC6305)
- ASSAY NOTES: Microtitre plate assay, IC90 determination, SPN 6305
- Assay type: cell-based
- RUN PARAMETERS: Streptococcus pneumoniae, ATCC6305, 24 h, 90% inhibitory concentration for bacterial growth, 37° C., resazurin fluorescence, read-out: IC90 (μg/ml) SPN 6305
OUTCOME MEASURE: IC90
Express the reported value numerically, then name its unit.

Use these answered entries as a reference point.
CNCCC(O)(c1ccccc1)C(c1ccccc1)c1cc2cc(Br)ccc2nc1OC (stereo not drawn)	4.9 µg/mL
COc1nc2ccc(Br)cc2cc1C(c1ccccc1)C(O)(CCN1CCN(c2ncccn2)CC1)c1ccc2ccccc2c1 (stereo not drawn)	15.1 µg/mL
COc1nc2ccc(Br)cc2cc1C(c1ccccc1)C(O)(CCN(C)C)c1cccc(F)c1F (stereo not drawn)	13.6 µg/mL
COc1nc2ccc(Br)cc2cc1C(c1ccccc1)C(O)(CCN(C)C)c1ccccc1F (stereo not drawn)	13.1 µg/mL
COc1nc2ccc(Br)cc2cc1C(c1ccccc1)C(O)(CCN(C)C)c1ccc2ccccc2c1 (stereo not drawn)	2.8 µg/mL

Query molecule follows.
Q) State its IC90 for this molecule: COc1nc2ccc(Br)cc2cc1C(c1ccccc1)C(O)(CCN1CCCCC1)c1cccc2ccccc12 (stereo not drawn)
A) 9.4 µg/mL
